- Assay Protocol: Pharmacokinetic study in rats
- Format: in vivo, Sprague‐Dawley rats
- Condition Notes: male, Sprague-Dawley, rat, in vivo, oral, 10 mg/kg, mean ± SD (n = 3)
- Experimental: Male Sprague‐Dawley rats were obtained from Charles River Laboratories Japan, Inc. (Yokohama, Japan). A pharmacokinetic study was conducted when the animals were 8 weeks old. For oral administration, SCO‐792 was suspended in a 0.5% (w/v) methylcellulose solution. […] The blood was collected at the indicated time points, and the plasma concentrations of SCO‐792 were determined by high‐performance liquid chromatography/tandem mass spectrometry.

Compound: N=C(N)Nc1ccc(C(=O)Oc2ccc3c(c2)OC[C@H]3CC(=O)N[C@@H](CC(=O)O)C(=O)O)cc1.O [SCO‐792]
Cmax [ng/mL]: 6.6

---

- Study Target: human recombinant enteropeptidase (Homo sapiens)
- Sequence (P98073 785-1019 limits assumed): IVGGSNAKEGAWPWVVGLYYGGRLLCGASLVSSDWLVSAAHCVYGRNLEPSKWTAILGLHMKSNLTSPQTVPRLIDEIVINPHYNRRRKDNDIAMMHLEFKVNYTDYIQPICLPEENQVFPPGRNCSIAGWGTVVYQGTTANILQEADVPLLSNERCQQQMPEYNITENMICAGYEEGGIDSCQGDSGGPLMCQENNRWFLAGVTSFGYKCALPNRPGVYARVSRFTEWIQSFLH
- Assay Protocol: Enteropeptidase enzyme assay (human recombinant enteropeptidase, FRET substrate)
- Condition Notes: 120‐minute incubation; read-out: IC50 (95% confidence intervals), human enteropeptidase activity
As shown below, each of these molecules has a reported IC50 value.
Observation Type: IC50 (nM)

Molecule: Cc1cc(OC(=O)c2ccc(NC(=N)N)cc2)no1 [T‐0046812]
Study Target: human recombinant enteropeptidase (Homo sapiens)
Observation Type: IC50
Uom: nM
Observed Result: 140
--
Molecule: N=C(N)Nc1ccc(C(=O)Oc2ccc3c(c2)OC[C@H]3CC(=O)N[C@@H](CC(=O)O)C(=O)O)cc1.O [SCO‐792]
Study Target: human recombinant enteropeptidase (Homo sapiens)
Observation Type: IC50
Uom: nM
Observed Result: 5.4

---

- Assay Protocol: Pharmacokinetic study in rats
- Assay type: in vivo, Sprague‐Dawley rats
- Condition Notes: male, Sprague-Dawley, rat, in vivo, intravenous, 0.2 mg/kg, observed at 5 minutes, mean ± SD (n = 3), read-out: C max (C5 min)
- Protocol: Male Sprague‐Dawley rats were obtained from Charles River Laboratories Japan, Inc. (Yokohama, Japan). A pharmacokinetic study was conducted when the animals were 8 weeks old. For oral administration, SCO‐792 was suspended in a 0.5% (w/v) methylcellulose solution. […] The blood was collected at the indicated time points, and the plasma concentrations of SCO‐792 were determined by high‐performance liquid chromatography/tandem mass spectrometry.
Observation Type: Cmax at 5 min

Sample Smiles: N=C(N)Nc1ccc(C(=O)Oc2ccc3c(c2)OC[C@H]3CC(=O)N[C@@H](CC(=O)O)C(=O)O)cc1.O
Observed Result: 564 ng/mL

---

- Assay Protocol: Pharmacokinetic study in rats
- Type: in vivo, Sprague‐Dawley rats
- Condition Notes: male, Sprague-Dawley, rat, in vivo, oral, 10 mg/kg, mean ± SD (n = 3), read-out: AUC0–24 h
Observation Type: AUC(0-t) (ng·h/mL)

Sample Smiles: N=C(N)Nc1ccc(C(=O)Oc2ccc3c(c2)OC[C@H]3CC(=O)N[C@@H](CC(=O)O)C(=O)O)cc1.O
Observed Result: 54.1

Sourced from paper PMC6726858
